B1: TPRG1 (parent)
chain: ETIQGFWLLTKIDHWNNEKERILL

variants of: B1; assay: protein stability index of a GFP-peptide fusion (GPS, HEK-293T) (PSI 1-6); higher = more stable; conditions: c terminus: a fixed tail appended;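 further: lentivirally expressed fusions sorted by FACS into six bins by GFP to DsRed ratio, PSI derived from sequencing read proportions per bin multiplied by bin number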
Catalogue of variants with associated protein stability index
Give only the figure.

ALTERATION	REPORTED_VALUE
I22V	3.42
N16A	2.06
E18A	2.8
E18H	2.3
H14D	2.88
L24P	2.8

Indicate its recorded protein stability index; the variant in question is D13P
2.19

// fetch protein stability index given entry N17V
3.23

Return value of protein stability index for input L24M , no commentary.
2.21

Give protein stability index for I22P
1.61

Fill in protein stability index for record I3G
2.14
